measured-on: human IL-12 receptor (IL-12Rβ1 and IL-12Rβ2) on HEK-Blue IL-12 cells (human, UniProt P42701 24-662; Q99665 24-862)
Sequence (Q99665 24-862, chain 2 of 2, other chains not shown): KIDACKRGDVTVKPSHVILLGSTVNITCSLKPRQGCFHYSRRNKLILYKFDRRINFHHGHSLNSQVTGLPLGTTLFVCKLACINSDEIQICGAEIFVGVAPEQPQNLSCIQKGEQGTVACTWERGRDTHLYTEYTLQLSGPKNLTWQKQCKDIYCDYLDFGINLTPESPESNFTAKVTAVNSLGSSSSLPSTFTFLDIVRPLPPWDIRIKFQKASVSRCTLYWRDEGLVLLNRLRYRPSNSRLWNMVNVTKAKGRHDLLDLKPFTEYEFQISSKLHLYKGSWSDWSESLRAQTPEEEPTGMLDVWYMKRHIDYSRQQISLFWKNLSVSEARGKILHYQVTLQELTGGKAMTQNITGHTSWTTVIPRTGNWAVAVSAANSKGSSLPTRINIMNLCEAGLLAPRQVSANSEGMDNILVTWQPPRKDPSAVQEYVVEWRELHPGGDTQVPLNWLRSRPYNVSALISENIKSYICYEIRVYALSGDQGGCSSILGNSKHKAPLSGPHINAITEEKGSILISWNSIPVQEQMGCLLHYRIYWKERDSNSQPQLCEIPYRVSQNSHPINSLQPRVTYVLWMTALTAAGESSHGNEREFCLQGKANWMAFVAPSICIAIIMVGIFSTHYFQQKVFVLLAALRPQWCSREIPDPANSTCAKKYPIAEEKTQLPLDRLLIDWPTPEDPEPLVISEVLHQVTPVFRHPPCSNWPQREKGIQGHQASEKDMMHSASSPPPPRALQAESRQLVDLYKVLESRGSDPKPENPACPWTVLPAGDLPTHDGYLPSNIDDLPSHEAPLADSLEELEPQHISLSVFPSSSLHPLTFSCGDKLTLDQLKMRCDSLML
test: cell-based or functional assay
observed-property: Max Absorbance
No unit in the answer, please; the number alone is enough.

Some binders with known Max Absorbance results, for comparison:
{"binder": "DGL516 (bispecific antibody, V domains shown, 97B1 x 93B2) V domain 1: QVQLVESGGGLAQAGGSLRLSCAASGRTFSNDDMAWFRQAPGKEREFVAHIDRNAASTNYADSVKGRFTISRDNAKNTVYLQMTRLKPEDTAVYYCAADPDHFGTTWYQQYTYWGPGTQVTVEP V domain 2: QVQLVESGGGLVQPGGSLRLSCAASGFTFEPYDMSWFRQAPGKGPEWVSAIDKGGGAGATYYADSVKGRFTISRDNAKKTLYLQMKSLKPEDTAVYYCAITAGPYSDSTPRVAYRGEGTQVTVEP", "quantitative-result": 1.05}
{"binder": "DGL534 (bispecific antibody, V domains shown, 115B1 x 19B2) V domain 1: QVQLVESGGGLVQAGGSLRLSCLASGRTSNYFMGWFRQAPGKEREFVAAISRSGGGTWYADSVKGRFAISRDNAKNTVNLQMNSLKREDTAVYYCAADRRTGTSVYTVDEYDYWGQGTQVTVEP V domain 2: QVQLVESGGGLVQPGGSLRLSCAASGFTFSNYAMSWVRQAPGKGLEWVSAINSDGTSTSYADSVKGQFTISRDNAKNTLYLQMNSLKPEDTAVYYCTKWEGDTDSDYKFKDYWGQGTQVTVEP", "quantitative-result": 0.69}
{"binder": "DGL604 (bispecific antibody, V domains shown) V domain 1: QVQLVESGGGLVQAGGSLRLSCAASRSISSFNEMAWYRQAPGEQRELVATIVSTVGFTNYADSVKGRFTISRDNAKNTVYLQMNSLKAEDTAVYYCNARRISTDYWGQGTQVTVEP V domain 2: QLQLVESGGGLVQAGGSLRLSCAASGRTFGIHGMGWFRQAPGKEREFAAAIRWSDGTTIHADSVKGRLTISRDNAKNTVYLQMNSLKPEDTAVYYCAATSNPQFGRNWYTVAAGVEYGYWGQGTQVTVEP", "quantitative-result": 0.23}

Asked: Given the entry DGL490 (bispecific antibody, V domains shown) V domain 1: QVQLVESGGGLVQAGGSLRLSCAASARIFNSYAVAWFRQTPGKEREFVASISWSGGSTNYADSVKGRFTISRDNAKNTVFLQMNSLKPADTAVYYCAADRNYYPSVLGKYTYWGQGTQVTVEP V domain 2: QVQLVESGGGLVQAGGSLRLSCAASGRTFSSYAMGWFRQAPGKEREFVSAISWSGLSTYYVESVQGRFTISRDNAKNTVYLQMNSLKPEDTAVYYCAASRIYTNYVARSYEYDDWGQGTQVTVEP , report its measured Max Absorbance.
Given back: 0.25

Asked: Can you handle DGL571 (bispecific antibody, V domains shown) V domain 1: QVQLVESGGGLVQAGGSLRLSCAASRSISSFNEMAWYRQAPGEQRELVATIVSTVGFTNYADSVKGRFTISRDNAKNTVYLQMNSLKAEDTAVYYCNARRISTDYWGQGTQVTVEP V domain 2: QVQLVESGGGLVQPGGSLRLSCAASGFTFSNYAMSWIRQGPERGFEWVSRINSGGGTTSYADSVKGRFTISRDNAKNTLYLQMNSLKPEDTAVYYCAKHSHPDYSSNYYRPGQGTQVTVEP next?
Given back: 0.64
